experimental-protocol: Stability and biodistribution of prodrugs in vivo (HPLC of plasma and tissues)
Parameters: species or system mice (CD-1 nude; BALB/C where indicated)
condition-parameters: mouse, tumor, 50 mg/kg, TUMOR, 120 min, 50 mg/kg i.p. or i.v., CD-1 nude mice; read-out: stability: percentage of material observed as intact prodrug, tumor
experimental-readout: remaining at 2 h (%)

{"columns": ["compound", "unit-of-measure", "numeric-value"],
 "data": [
  ["Cc1nc2ccc3ccc(CNc4ccc(C(=O)N[C@@H](CCC(=O)O)C(=O)N[C@@H](CCC(=O)O)C(=O)O)c(F)c4)cc3c2c(=O)[nH]1 [Prodrug 1]", "%", 76],
  ["CN(Cc1cnc2nc(N)nc(N)c2n1)c1ccc(C(=O)N[C@@H](CCC(=O)O)C(=O)N[C@@H](Cc2cccc(C3CCC3)c2)C(=O)O)cc1 [Prodrug 11]", "%", 88.1],
  ["CN(Cc1cnc2nc(N)nc(N)c2n1)c1ccc(C(=O)N[C@@H](CCC(=O)O)C(=O)N[C@@H](Cc2ccccc2C(=O)O)C(=O)O)cc1 [Prodrug 7]", "%", 100],
  ["Cc1nc2ccc3ccc(CNc4ccc(C(=O)N[C@@H](CCC(=O)O)C(=O)N[C@@H](Cc5ccccc5I)C(=O)O)c(F)c4)cc3c2c(=O)[nH]1 [Prodrug 5]", "%", 88]
]}

a. Cc1nc2ccc3ccc(CNc4ccc(C(=O)N[C@@H](CCC(=O)O)C(=O)N[C@@H](Cc5ccccc5C(=O)O)C(=O)O)c(F)c4)cc3c2c(=O)[nH]1 [Prodrug 4]
b. CN(Cc1cnc2nc(N)nc(N)c2n1)c1ccc(C(=O)N[C@@H](CCC(=O)O)C(=O)N[C@@H](CC(=O)O)C(=O)O)cc1 [Prodrug 6]
### Prompt Select the item whose remaining at 2 h value is smaller, choosing between a and b . Lab note: record the label of whichever item you select.
### Response b
(b: 59%, a: 100%)

----------
experimental-protocol: Stability and biodistribution of prodrugs in vivo (HPLC of plasma and tissues)
Set-up: species or system mice (CD-1 nude; BALB/C where indicated)
condition-parameters: mouse, plasma, 50 mg/kg, PLASMA, 30 min, 50 mg/kg i.p. or i.v., BALB/C mice; read-out: stability: percentage of material observed as intact prodrug, plasma
experimental-readout: remaining at 0.5 h (%)
# value in %; strip the unit string

### Prompt Identify remaining at 0.5 h associated with the molecule CN(Cc1cnc2nc(N)nc(N)c2n1)c1ccc(C(=O)N[C@@H](CCC(=O)O)C(=O)N[C@@H](Cc2cccc(C3CCCC3)c2)C(=O)O)cc1 [Prodrug 9]
### Response 100

----------
experimental-protocol: Stability and biodistribution of prodrugs in vivo (HPLC of plasma and tissues)
Set-up: species or system mice (CD-1 nude; BALB/C where indicated)
condition-parameters: mouse, plasma, 50 mg/kg, PLASMA, 120 min, 50 mg/kg i.p. or i.v., CD-1 nude mice; read-out: concentration of prodrug in plasma
experimental-readout: concentration at 2 h (nM)

{"columns": ["compound", "concentration at 2 h (nM)"],
 "data": [
  ["CN(Cc1cnc2nc(N)nc(N)c2n1)c1ccc(C(=O)N[C@@H](CCC(=O)O)C(=O)N[C@@H](CC(=O)O)C(=O)O)cc1 [Prodrug 6]", 2000]
]}

1. Cc1nc2ccc3ccc(CNc4ccc(C(=O)N[C@@H](CCC(=O)O)C(=O)N[C@@H](Cc5ccccc5C(=O)O)C(=O)O)c(F)c4)cc3c2c(=O)[nH]1 [Prodrug 4]
2. Cc1nc2ccc3ccc(CNc4ccc5c(c4)CN([C@@H](CCC(=O)O)C(=O)N[C@@H](Cc4ccccc4)C(=O)O)C5=O)cc3c2c(=O)[nH]1 [Prodrug 2]
3. Cc1nc2ccc3ccc(CNc4ccc(C(=O)N[C@@H](CCC(=O)O)C(=O)N[C@@H](CCC(=O)O)C(=O)O)c(F)c4)cc3c2c(=O)[nH]1 [Prodrug 1]
4. Cc1nc2ccc3ccc(CNc4ccc(C(=O)N[C@@H](CCC(=O)O)C(=O)N[C@@H](Cc5ccccc5I)C(=O)O)c(F)c4)cc3c2c(=O)[nH]1 [Prodrug 5]
### Prompt Rank entries according to their concentration at 2 h, from the largest number down. Form entry: ranked labels (order as requested).
### Response 4, 3, 1, 2
(4: 9400 nM, 3: 4200 nM, 1: 1400 nM, 2: 300 nM)

a. CN(Cc1cnc2nc(N)nc(N)c2n1)c1ccc(C(=O)N[C@@H](CCC(=O)O)C(=O)N[C@@H](Cc2ccccc2)C(=O)O)cc1 [Prodrug 10, reference compound]
b. CN(Cc1cnc2nc(N)nc(N)c2n1)c1ccc(C(=O)N[C@@H](CCC(=O)O)C(=O)N[C@@H](Cc2ccccc2C(=O)O)C(=O)O)cc1 [Prodrug 7]
c. Cc1nc2ccc3ccc(CNc4ccc(C(=O)N[C@@H](CCC(=O)O)C(=O)N[C@@H](Cc5cccc6ccccc56)C(=O)O)c(F)c4)cc3c2c(=O)[nH]1 [Prodrug 3]
### Prompt Order the items by recorded concentration at 2 h; the first position goes to the largest value. List labels; respect the requested ordering.
### Response c, a, b
(c: 5100 nM, a: 1100 nM, b: 200 nM)

----------
experimental-protocol: Stability and biodistribution of prodrugs in vivo (HPLC of plasma and tissues)
Parameters: species or system mice (CD-1 nude; BALB/C where indicated)
condition-parameters: mouse, spleen, 50 mg/kg, SPLEEN, 30 min, 50 mg/kg i.p. or i.v., CD-1 nude mice; read-out: stability: percentage of material observed as intact prodrug, spleen
experimental-readout: remaining at 0.5 h (%)

{"columns": ["molecule", "numeric-value"],
 "data": [
  ["CN(Cc1cnc2nc(N)nc(N)c2n1)c1ccc(C(=O)N[C@@H](CCC(=O)O)C(=O)N[C@@H](Cc2ccccc2C(=O)O)C(=O)O)cc1 [Prodrug 7]", 100],
  ["CN(Cc1cnc2nc(N)nc(N)c2n1)c1ccc(C(=O)N[C@@H](CCC(=O)O)C(=O)N[C@@H](Cc2ccc(O)c(C3CCCC3)c2)C(=O)O)cc1 [Prodrug 13]", 100],
  ["CN(Cc1cnc2nc(N)nc(N)c2n1)c1ccc(C(=O)N[C@@H](CCC(=O)O)C(=O)N[C@@H](Cc2cccc(C3CCC3)c2)C(=O)O)cc1 [Prodrug 11]", 96.5],
  ["CN(Cc1cnc2nc(N)nc(N)c2n1)c1ccc(C(=O)N[C@@H](CCC(=O)O)C(=O)N[C@@H](Cc2ccccc2C2CCCC2)C(=O)O)cc1 [Prodrug 8]", 98],
  ["Nc1nc(N)c(CCCNc2ccc(C(=O)N[C@@H](CCC(=O)O)C(=O)N[C@@H](Cc3cccc(C4CCCC4)c3)C(=O)O)cc2)c(=O)[nH]1 [Prodrug 14]", 100],
  ["CN(Cc1cnc2nc(N)nc(N)c2n1)c1ccc(C(=O)N[C@@H](CCC(=O)O)C(=O)N[C@@H](CC(=O)O)C(=O)O)cc1 [Prodrug 6]", 70],
  ["Cc1nc2ccc3ccc(CNc4ccc(C(=O)N[C@@H](CCC(=O)O)C(=O)N[C@@H](Cc5cccc6ccccc56)C(=O)O)c(F)c4)cc3c2c(=O)[nH]1 [Prodrug 3]", 95],
  ["Cc1nc2ccc3ccc(CNc4ccc(C(=O)N[C@@H](CCC(=O)O)C(=O)N[C@@H](Cc5ccccc5C(=O)O)C(=O)O)c(F)c4)cc3c2c(=O)[nH]1 [Prodrug 4]", 99],
  ["Cc1nc2ccc3ccc(CNc4ccc(C(=O)N[C@@H](CCC(=O)O)C(=O)N[C@@H](CCC(=O)O)C(=O)O)c(F)c4)cc3c2c(=O)[nH]1 [Prodrug 1]", 100],
  ["CN(Cc1cnc2nc(N)nc(N)c2n1)c1ccc(C(=O)N[C@@H](CCC(=O)O)C(=O)N[C@@H](Cc2cccc(C3CCCC3)c2)C(=O)O)cc1 [Prodrug 9]", 100],
  ["Cc1nc2ccc3ccc(CNc4ccc(C(=O)N[C@@H](CCC(=O)O)C(=O)N[C@@H](Cc5ccccc5I)C(=O)O)c(F)c4)cc3c2c(=O)[nH]1 [Prodrug 5]", 85],
  ["CN(Cc1cnc2nc(N)nc(N)c2n1)c1ccc(C(=O)N[C@@H](CCC(=O)O)C(=O)N[C@@H](Cc2ccccc2)C(=O)O)cc1 [Prodrug 10, reference compound]", 80.4]
]}

----------
experimental-protocol: Stability and biodistribution of prodrugs in vivo (HPLC of plasma and tissues)
Design: species or system mice (CD-1 nude; BALB/C where indicated)
condition-parameters: mouse, plasma, 50 mg/kg, PLASMA, 90 min, 50 mg/kg i.p. or i.v., CD-1 nude mice; read-out: concentration of prodrug in plasma
experimental-readout: concentration at 1.5 h (µM)
Give the value in µM but do not write µM after it.

### Prompt Please look at this compound and report its concentration at 1.5 h: Cc1nc2ccc3ccc(CNc4ccc5c(c4)CN([C@@H](CCC(=O)O)C(=O)N[C@@H](Cc4ccccc4)C(=O)O)C5=O)cc3c2c(=O)[nH]1 [Prodrug 2]
### Response 5.5
